Origin of values: patent US11266643B2

Each record here notes measured pIC50.
# Assayed target: human PD-L1 (Homo sapiens (Human), UniProt Q9NZQ7)
# Sequence (Q9NZQ7 19-239): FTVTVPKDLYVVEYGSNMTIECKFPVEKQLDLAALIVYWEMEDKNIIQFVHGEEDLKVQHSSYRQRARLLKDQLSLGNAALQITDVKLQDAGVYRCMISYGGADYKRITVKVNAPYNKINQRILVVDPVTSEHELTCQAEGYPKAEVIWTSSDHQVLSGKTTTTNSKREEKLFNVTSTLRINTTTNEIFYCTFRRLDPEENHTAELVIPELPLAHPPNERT
# Assay: Enzyme-Linked Immunosorbent Assay (ELISA), PD-1/PD-L1 binding
# Conditions used: PD-1/PD-L1 ELISA, human PD-L1 coated plates, Table 1
pIC50: −log10 of the molar value.
Parameter measured: pIC50

item_smiles=COc1cc(-c2cccc(-c3cccc(NC(=O)c4ncc(C)cn4)c3C)c2C)cc(F)c1CN1CC(C(=O)O)C1 result="6.00 to 8.00"
item_smiles=COc1cc(-c2cccc(-c3cccc(NC(=O)c4cncn(C)c4=O)c3C)c2C)cc(F)c1CNC[C@@H](C)O result="> 8.00"
item_smiles=COc1cc(-c2cccc(-c3cccc(NC(=O)c4cncn(C)c4=O)c3C)c2C)cc(F)c1CNC[C@@H]1CCC(=O)N1 result="> 8.00"
item_smiles=COc1cc(-c2cccc(-c3cccc(Nc4ccnc5nccnc45)c3C)c2C)cc(F)c1CN1CC(C(=O)O)C1 result="> 8.00"
item_smiles=COC(=O)Cc1ccc(C(=O)Nc2cccc(-c3cccc(-c4cc(F)c(CN)c(OC)c4)c3C)c2C)nc1 result="> 8.00"
item_smiles=COc1cc(-c2cccc(-c3cccc(NC(=O)c4c[nH]c(=O)n(C)c4=O)c3C)c2C)cc(F)c1CNCC1(O)CC1 result="> 8.00"
item_smiles=COc1cc(-c2cccc(-c3cccc(NC(=O)c4ccc(N)nc4)c3C)c2C)cc(F)c1CNCCO result="5.00 to 6.00"
item_smiles=COc1cc(-c2cccc(-c3cccc(Nc4nccc5c4C(=O)N(C)CC5)c3C)c2C)cc(F)c1CN1CC(C(=O)OC(C)C)C1 result="6.00 to 8.00"
item_smiles=COc1cc(-c2cccc(-c3cccc(Nc4nccc5nccnc45)c3C)c2C)cc(F)c1CNC[C@@H]1CCC(=O)N1 result="> 8.00"
item_smiles=COc1cc(-c2cccc(-c3cccc(NC(=O)C4=CNCN(C)C4=O)c3C)c2C)cc(F)c1CNCCO result="> 8.00"
item_smiles=COc1cc(-c2cccc(-c3cccc(NC(=O)c4cncn(C)c4=O)c3C)c2C)cc(F)c1CNCCC(=O)O result="> 8.00"
item_smiles=COc1cc(-c2cccc(-c3cccc(Nc4cccc5ccn(C)c(=O)c45)c3C)c2C)cc(F)c1CN1CC(C(=O)O)C1 result="6.00 to 8.00"
item_smiles=COc1cc(-c2cccc(-c3cccc(NC(=O)c4c[nH]c(=O)n(C)c4=O)c3C)c2C)cc(F)c1CNCCN result="> 8.00"
item_smiles=COc1cc(-c2cccc(-c3cccc(NC(=O)c4c[nH]c(=O)n(C)c4=O)c3C)c2C)cc(F)c1CNCC(C)(C)O result="> 8.00"
item_smiles=COc1cc(-c2cccc(-c3cccc(Nc4nccc5nccnc45)c3C)c2C)cc(F)c1CN1CC(O)C1 result="> 8.00"
item_smiles=COc1cc(-c2cccc(-c3cccc(NC(=O)C4CCN(CCO)CC4)c3C)c2C)cc(F)c1CN result="6.00 to 8.00"
item_smiles=COc1cc(-c2cccc(-c3cccc(NC(=O)c4ncc(C(N)=O)cn4)c3C)c2C)cc(F)c1CN result="> 8.00"
item_smiles=COc1cc(-c2cccc(-c3cccc(NC(=O)c4cnc(CC(=O)O)cn4)c3C)c2C)cc(F)c1CN result="> 8.00"
item_smiles=COc1cc(-c2cccc(-c3cccc(NC(=O)c4c[nH]c(=O)n(C)c4=O)c3C)c2C)cc(F)c1CN[C@@H]1CNC(=O)C1 result="> 8.00"
item_smiles=COc1cc(-c2cccc(-c3cccc(NC(=O)c4c[nH]c(=O)n(C)c4=O)c3C)c2C)cc(F)c1CNC(C)C result="> 8.00"

###

# Assayed target: human PD-L1 (Homo sapiens (Human))
# Assay: Enzyme-Linked Immunosorbent Assay (ELISA), PD-1/PD-L1 binding
# Conditions used: human PD-1/PD-L1 ELISA, plates coated with human PD-L1
Each record here notes measured IC50.
Parameter measured: IC50

molecule="COc1cc(-c2cccc(-c3cccc(NC(=O)c4c[nH]c(=O)n(C)c4=O)c3C)c2C)cc(F)c1CNCc1ncc[nH]1 [Example 1.119]" parameter_measured=IC50 result="10 to 1000 nM"
molecule="COc1cc(-c2cccc(-c3cccc(NC(=O)c4nn(C)c(=O)n(C)c4=O)c3C)c2C)cc(F)c1CN[C@H]1CCC(=O)NC1 [Example 1.089]" parameter_measured=IC50 result="< 10 nM"
molecule="COc1cc(-c2cccc(-c3cccc(NC(=O)c4cn(C)c(=O)n(C)c4=O)c3Cl)c2C)cc(F)c1CN[C@@H]1CNC(=O)C1 [Example 1.047]" parameter_measured=IC50 result="< 10 nM"
molecule="COc1cc(-c2cccc(-c3cccc(Nc4nccc5c4NCCN5)c3C)c2C)cc(F)c1CN[C@@H]1CCC[C@@H]1O [Example 1.173]" parameter_measured=IC50 result="10 to 1000 nM"
molecule="COc1cc(-c2cccc(-c3cccc(NC(=O)c4c[nH]c(=O)n(C)c4=O)c3C)c2C)cc(F)c1CN[C@H]1CNC(=O)C1 [Example 1.143]" parameter_measured=IC50 result="< 10 nM"
molecule="COc1cc(-c2cccc(-c3cccc(NC(=O)c4nn(C)c(=O)n(C)c4=O)c3C)c2C)cc(F)c1CNCCN1CCCC1=O [Example 1.092]" parameter_measured=IC50 result="< 10 nM"

###

# Assayed target: human PD-L1 (Homo sapiens (Human))
# Assay: Enzyme-Linked Immunosorbent Assay (ELISA), PD-1/PD-L1 binding
# Conditions used: human PD-1/PD-L1 ELISA, plates coated with human PD-L1
Parameter measured: IC50

compound="COc1cc(-c2cccc(-c3cccc(NC(=O)c4cn(C)c(=O)n(C)c4=O)c3C)c2C)cc(F)c1CN(C)C[C@H]1CCC(=O)N1 [Example 1.152]" assayed_target="human PD-L1 (Homo sapiens (Human))" result="10 to 1000 nM"
compound="COc1cc(-c2cccc(-c3cccc(NC(=O)c4cn(C)c(=O)n(C)c4=O)c3C)c2C)cc(F)c1CNCCC(N)=O [Example 1.114]" assayed_target="human PD-L1 (Homo sapiens (Human))" result="< 10 nM"
compound="COc1cc(-c2cccc(-c3cccc(NC(=O)c4cn(C)c(=O)n(C)c4=O)c3C)c2C)cc(F)c1CN[C@@H]1CCC[C@H]1O [Example 1.137]" assayed_target="human PD-L1 (Homo sapiens (Human))" result="< 10 nM"
compound="COc1cc(-c2cccc(-c3cccc(Nc4nccc5nccnc45)c3C)c2C)cc(F)c1CNC1CCOCC1 [Example 1.123]" assayed_target="human PD-L1 (Homo sapiens (Human))" result="< 10 nM"
compound="COc1cc(-c2cccc(-c3cccc(NC(=O)c4cncn(C)c4=O)c3C)c2C)cc(F)c1CN(C)CC(C)(C)O [Example 1.166]" assayed_target="human PD-L1 (Homo sapiens (Human))" result="10 to 1000 nM"

###

# Assayed target: UniProt Q9NZQ7
# Assay: Enzyme-Linked Immunosorbent Assay (ELISA), PD-1/PD-L1 binding
# Conditions used: human PD-1/PD-L1 ELISA, plates coated with human PD-L1
Parameter measured: IC50

molecule=COc1cc(-c2cccc(-c3cccc(NC(=O)c4nn(C)c(=O)n(C)c4=O)c3C)c2C)cc(F)c1CNC(C)C result="< 10 nM"
molecule=COc1cc(-c2cccc(-c3cccc(NC(=O)C4=CNCN(C)C4=O)c3C)c2C)cc(F)c1CNC[C@@H]1CCC(=O)N1C result="10 to 1000 nM"
molecule=COc1cc(-c2cccc(-c3cccc(NC(=O)c4nn(C)c(=O)n(C)c4=O)c3C)c2C)cc(F)c1CNC[C@H]1CCC(=O)N1 result="< 10 nM"
molecule=COc1cc(-c2cccc(-c3cccc(NC(=O)c4cccn(C)c4=O)c3C)c2C)cc(F)c1CNC(C)C result="< 10 nM"
molecule="COc1cc(-c2cccc(-c3cccc(NC(=O)c4cn(C)c(=O)n(C)c4=O)c3C)c2Cl)cc(F)c1CN[C@H]1CCOC[C@@H]1O (racemic)" result="< 10 nM"
molecule=COc1cc(-c2cccc(-c3cccc(NC(=O)c4ccc(CN[C@@](C)(CO)C(=O)O)cn4)c3C)c2C)cc(F)c1CN[C@@](C)(CO)C(=O)O result="< 10 nM"
molecule=COc1cc(-c2cccc(-c3cccc(NC(=O)c4cn(C)c(=O)n(C)c4=O)c3C)c2C)cc(F)c1CN[C@H]1CCOC1 result="< 10 nM"
molecule=COc1cc(-c2cccc(-c3cccc(NC(=O)c4c[nH]c(=O)n(C)c4=O)c3C)c2C)cc(F)c1CNCc1ccn[nH]1 result="< 10 nM"
molecule="COc1cc(-c2cccc(-c3cccc(NC(=O)c4cn(C)c(=O)n(C)c4=O)c3C)c2C)cc(F)c1CNC1CC(=O)NC1=O (stereo not shown)" result="10 to 1000 nM"
molecule=COc1cc(-c2cccc(-c3cccc(NC(=O)c4cn(C)c(=O)n(C)c4=O)c3C)c2C)cc(F)c1CNCCCC(N)=O result="< 10 nM"
molecule=COc1cc(-c2cccc(-c3cccc(NC(=O)c4cncn(C)c4=O)c3C)c2C)cc(F)c1CN(C)[C@@H]1CNC(=O)C1 result="10 to 1000 nM"
molecule=COc1cc(-c2cccc(-c3cccc(NC(=O)c4nn(C)c(=O)n(C)c4=O)c3C)c2C)cc(F)c1CNCc1c[nH]c(=O)[nH]c1=O result="< 10 nM"
molecule=COc1cc(-c2cccc(-c3cccc(NC(=O)c4cn(C)c(=O)n(C)c4=O)c3C)c2C)cc(F)c1CNC(C)(C)CO result="< 10 nM"
